Molecular target: T1, recombinant human SOST (rhSOST) (human, UniProt Q9BQB4 24-213)
T1 construct: Treated as one molecule; also called recombinant human SOST protein; human sclerostin
T1 sequence: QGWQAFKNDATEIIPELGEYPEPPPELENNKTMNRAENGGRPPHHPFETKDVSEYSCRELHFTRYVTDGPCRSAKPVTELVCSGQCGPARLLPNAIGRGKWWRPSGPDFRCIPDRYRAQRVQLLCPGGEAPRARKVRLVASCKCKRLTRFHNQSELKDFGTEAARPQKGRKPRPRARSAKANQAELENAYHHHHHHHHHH
Assay: SPR Biacore T200, IgG captured via anti-human Fc, rhSOST analyte, 37 C
quantityName: Kd (nM)

DM19 (antibody, V domains shown, also called wt/mL10) VH: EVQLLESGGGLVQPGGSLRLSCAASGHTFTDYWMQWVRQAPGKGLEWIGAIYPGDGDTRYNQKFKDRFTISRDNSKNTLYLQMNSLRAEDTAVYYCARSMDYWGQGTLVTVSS VL: DIVMTQSPDSLAVSLGERATINCRASKTVDSYGNSFMHWFQQKPGQPPKLLIHHSSNLESGVPDRFSGSGSGTDFTLTISSLQAEDVAVYYCLQTIEFHYTFGQGTKLEIK :: 0.096
DM30 (antibody, V domains shown, also called mH10/mL3) VH: EVQLLESGGGLVQPGGSLRLSCAASGHTFSDYWMQWVRQAPGKGLEWVGAIYPGDGDTRYNQKFKDRFTISRDNSKNTLYLQMNSLRAEDTAVYYCARSMDYWGQGTLVTVSS VL: DIVMTQSPDSLAVSLGERATINCRASKTVDSYGNSFMHWYQQKPGQPPKLLIYHSSNLESGVPDRFSGSGSGTDFTLTISSLQAEDVAVYYCLQTIEDPYTFGQGTKLEIK :: 0.045
